measured on: T1, hPD-1-Fc (human, UniProt Q15116 25-167)
T1 construct: domain: IgV domain; also called human PD-1-Fc; not shown: human IgG1 Fc
method: SPR, range over experiments
measurement name: Kd

Q: So what does the record say about Kd for 38A6 (antibody, V domains shown, also called 780_46) VH: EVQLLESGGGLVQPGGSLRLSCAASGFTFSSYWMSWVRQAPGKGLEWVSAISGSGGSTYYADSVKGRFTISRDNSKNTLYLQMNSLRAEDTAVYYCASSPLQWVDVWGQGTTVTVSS VL: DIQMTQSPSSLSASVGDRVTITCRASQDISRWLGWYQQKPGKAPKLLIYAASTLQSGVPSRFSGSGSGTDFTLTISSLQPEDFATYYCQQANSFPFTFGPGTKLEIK ?
Ans: 0.14 to 0.3 nM

Q: Sample 38B2 (antibody, V domains shown, 24H9 derivative, IgG; also called 780_54; hPD1 Ab (38B2)) VH: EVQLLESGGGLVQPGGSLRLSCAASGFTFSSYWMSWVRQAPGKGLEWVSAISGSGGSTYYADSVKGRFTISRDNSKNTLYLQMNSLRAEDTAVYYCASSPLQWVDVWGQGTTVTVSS VL: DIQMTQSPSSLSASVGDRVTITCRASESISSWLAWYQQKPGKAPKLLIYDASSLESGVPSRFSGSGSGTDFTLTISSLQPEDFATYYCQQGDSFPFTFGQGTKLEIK — what was its Kd?
Ans: 0.01 to 0.03 nM

Q: Report Kd for 33C4 (antibody, V domains shown, also called 780_39) VH: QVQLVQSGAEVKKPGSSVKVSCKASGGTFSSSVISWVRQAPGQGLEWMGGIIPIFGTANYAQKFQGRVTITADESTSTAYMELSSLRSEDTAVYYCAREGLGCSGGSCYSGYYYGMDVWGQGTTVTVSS VL: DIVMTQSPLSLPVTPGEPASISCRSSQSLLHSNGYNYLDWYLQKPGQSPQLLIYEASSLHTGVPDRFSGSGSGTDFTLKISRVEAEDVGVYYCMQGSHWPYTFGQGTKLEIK please.
Ans: 0.01 to 0.02 nM

All values here come from patent US20230416363A1.
